System: Platelet aggregation caused by PAF
protocol.text: Inhibition of PAF-induced platelet aggregation in rabbit PRP (Test Example 5)
Format: cell-based
condition.context: Oryctolagus cuniculus, 3 × 10^-5 M, PAF 1×10^-8 M, read-out: inhibition ratio (%) of PAF-induced platelet aggregation
Assign inhibition at 30 µM to each entry below.
Numbers only, in %.

Example cases with answers are listed next.
CCCCCCCCCCCCCCCCCCOCC(COCCOCCOCC[N+](C)(C)C)OC(=O)CC(C)=O (stereo not shown) [Example 15]	100
COC(COCCCCCCCCCCCCC1CCCCC1)COCCOCC[N+](C)(C)C (stereo not shown) [Example 24]	100
CCCCCCCCCCCCCCCCCCOCC(COP(=O)([O-])OCC[N+](C)(C)C)OC (stereo not shown) [Compound IV, reference compound]	0

Hey, can you go through the list below and give me inhibition at 30 µM for every item?
1. CCCCCCCCCCCCCCCCCCOCC(COCCCC[N+](C)(C)C)OC (stereo not shown) [Compound Vb, reference compound]
2. CCCCCCCCCCCCCCCCCCOCC(COCCOCCOCC[N+](C)(C)C)OC (stereo not shown) [Example 9]
3. CCCCCCCCCCCCCCCCCCOCC(COCCOCC[N+](C)(C)C)OC (stereo not shown) [Example 8]
4. CCCCCCCCCCCCCCCCCCOCC(COCC[N+](C)(C)C)OC (stereo not shown) [Compound Va, reference compound]

-- reply
97
100
100
27

###

Test system: Sarcoma 180 cells
protocol.text: Antitumor action, Sarcoma 180 intraperitoneal in ICR mice, life-span and survivors on 40th day (Test Example 1)
Type: in vivo
condition.context: 0.33 mg/mouse i.p. three times
endpoint: No. of survivors/No. of mice tested

Example cases with answers are listed next.
COC(COCCCCCCCCCCCCC1CCCCC1)COCCOCC[N+](C)(C)C (stereo not shown)	3/5
CCCCCCCCCCCCCCCCCCOCC(COCCOCC[N+](C)(C)C)OC (stereo not shown)	5/5
CCCCCCCCCCCCCCCCCCOCC(COCC[N+](C)(C)C)OC (stereo not shown) [Compound Va, reference compound]	1/5
CCCCCCCCCCCCCCCCCCOCC(COCCOCCOCC[N+](C)(C)C)OC(=O)CC(C)=O (stereo not shown)	4/5

Hey, can you go through the list below and give me No. of survivors/No. of mice tested for every item?
1. CCCCCCCCCCCCCCCCCCOCC(COCCCC[N+](C)(C)C)OC (stereo not shown) [Compound Vb, reference compound]
2. CCCCCCCCCCCCCCCCCCOCC(COCCOCCOCC[N+](C)(C)C)OC (stereo not shown)
3. CCCCCCCCCCCCCCCCCCOCC(COP(=O)([O-])OCC[N+](C)(C)C)OC (stereo not shown) [Compound IV, reference compound]

-- reply
1: 0/5; 2: 1/5; 3: 0/5
